System: LOX IMVI melanoma
TEST_NAME: NCI tumour cell line growth inhibition, 48 h; in the data active = GI50 below about 0.43 µM; inactive = the rest
Respond using exactly one of the listed classes: y (active), n (inactive)

Completed entries (count: 4):
In [3]: df
Out[3]:
                                   compound    target_of_assay  cat
0  COc1cc(C(=O)O[C@H](C(=O)NCCNC(=O)[C@@H](OC(=O)c2cc(OC)cc3c(C)cccc23)[C@]2(C)CO2)[C@]2(C)CO2)c2cccc(C)c2c1  LOX IMVI melanoma    y
1                       CCCCCCCCCNCCCCCCCCC  LOX IMVI melanoma    n
2  CC([C@H]1CCC2C3CCC4C[C@@H](NC=O)CC[C@]4(C)C3CC[C@@]21C)N(C)C (stereo not given in full)  LOX IMVI melanoma    n
3  CC1(C)OC[C@@H]([C@@]2(CO[Si](C)(C)C(C)(C)C)CC=CC(=O)O2)O1  LOX IMVI melanoma    n

Per the assay record, what outcome was assigned to COc1cc(NC(=O)c2cc(OC)c3ccn(C)c3c2)cc2c1C[C@]1(C)CC[C@@H](O)C(C)(C)[C@H]1O2 ?
n

Each recorded value in this set is attributed to PubChem BioAssay (NCI).
